pKd values, listed per item
- targetOrSystem: HLA-A*26:01
- assayOverview: IEDB peptide-MHC binding, purified MHC/competitive/fluorescence; filed as Kd, often an IC50 or EC50 that approximates it; bounds were set here for any values at or beyond the usual limits of such assays
- reportedConditions: source organism: Zaire ebolavirus
pKd: −log10 of the molar value.

Past entries and their recorded results:
PQVLGGLSF: ≤ 4.70
KQIPIWLPL: ≤ 4.70
TVAPPAPVY: ≤ 4.70

Field: next sequence
Give pKd for `TPSHYSGNI` tested on HLA-A*26:01.
≤ 4.70

====

- targetOrSystem: HLA-A*33:01
- assayOverview: IEDB peptide-MHC binding, purified MHC/competitive/radioactivity; filed as Kd, often an IC50 or EC50 that approximates it; bounds were set here for any values at or beyond the usual limits of such assays
- reportedConditions: source organism: Mammarenavirus guanaritoense
recordedEndpoint: pKd
Note on pKd: it is the negative log10 of concentration, concentration in mol/L.

Return value of pKd for input `TCITSMAER` , no commentary.
5.58
